- measurement.conditions: in toluene, 308.15 K
property: solubility (mole fraction)
Lab note: write the figure by itself, no unit.

-- ask Tell me the measured solubility (mole fraction) of CC(C)N1C(=O)N(c2ccccc2)CSC1=NC(C)(C)C , please.
-- reply 0.172

----------
- measurement.conditions: in water, 293.15 K
property: solubility (mole fraction)

-- ask Tell me the measured solubility (mole fraction) of CC(C)N1C(=O)N(c2ccccc2)CSC1=NC(C)(C)C , please.
-- reply 6.05e-05

----------
- measurement.conditions: in n-butanol, 313.15 K
property: solubility (mole fraction)
Lab note: write the figure by itself, no unit.

-- ask Tell me the measured solubility (mole fraction) of CC(C)N1C(=O)N(c2ccccc2)CSC1=NC(C)(C)C , please.
-- reply 0.0577
